Cited source for all entries: PubChem BioAssay (Tox21)

# assay_comment: qHTS assay for small molecule activators of the heat shock response signaling pathway (AID 743210);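 for activation: HeLa cells with beta-lactamase reporter driven by heat shock elements; % is set by controls: 0 for no effect and ±100 for the full control effect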
# assay_conditions: HeLa HSE-bla reporter, beta-lactamase ratio, 5 h; series mostly up to 62.6 µM
Results filed as inconclusive are left out. Calls of active or inactive are those of the source. Calls come from the whole dose curve; as a rule, active = well fitted activation curve with a large enough effect in the signal ratio in the repeat runs, with a control signal flat (not every such curve was filed as active); inconclusive = weak or mixed curves; inactive = flat fitted curve, though single readings scatter; the % refers to the signal ratio.
Valid outcomes are listed here; reply with one: class 1 (active), class 0 (inactive)

What call does the record list for "C[C@]12CC[C@@H]3c4ccc(OC(=O)N(CCCl)CCCl)cc4CC[C@H]3[C@@H]1CC[C@@H]2O" ?
class 0

What call does the record list for "CC[C@H]1C[C@@H]2C[C@H]3c4[nH]c5ccc(OC)cc5c4CCN(C2)[C@@H]13" ?
class 1

What call does the record list for O=C(O)C1C2CCC(O2)C1C(=O)O (configuration not stated) ?
class 0

What call does the record list for "CN(C)CCc1c[nH]c2ccc(O)cc12" ?
class 1

What call does the record list for "CC(=O)OC1(c2ccccc2)CCN(CCc2ccccc2)CC1" ?
class 0

New cases:
What call does the record list for "Cc1cc(C)c(C2=C(OC(=O)CC(C)(C)C)C3(CCCC3)OC2=O)c(C)c1" ?
class 0

What call does the record list for "Nc1ccc(Sc2ccc(N)cc2)cc1" ?
class 0

What call does the record list for "CN(C)C1CSSSC1" ?
class 0

What call does the record list for "BrC(Br)Br" ?
class 0

What call does the record list for O=C1NCN(c2ccccc2)C12CCN(CC1COc3ccccc3O1)CC2 (configuration not stated) ?
class 0

What call does the record list for "N#CCCSCCC#N" ?
class 0

What call does the record list for "COP(=S)(OC)Oc1cc(Cl)c(Br)cc1Cl" ?
class 0
